# measurement.setup: microsomes
Group membership follows Human Liver Microsome Stability per the scheme lower bin: < 30 µL/min/mg; middle bin: ≥ 30 µL/min/mg and < 100 µL/min/mg; upper bin: ≥ 100 µL/min/mg

compound: CCN(CC(=O)Nc1ccc2c(c1)OCCN2C(C)(C)CO)S(=O)(=O)c1cc(C)cc2cn[nH]c12
discrete.label: middle bin
--
compound: Cn1ccc(NC(=O)[C@@H]2CCN2S(=O)(=O)c2cc(C(F)F)cc3cn[nH]c23)cc1=O
discrete.label: lower bin
--
compound: Cc1cc2c(c(S(=O)(=O)N(C)CC(=O)Nc3ccc(N4CCCCC4)c(C)c3)c1)CC=C2
discrete.label: upper bin
--
compound: COc1ccc(NC(=O)CN(C)S(=O)(=O)c2cc(C)cc3cc(C#N)[nH]c23)cc1Cl
discrete.label: upper bin
--
compound: Cc1cc(S(=O)(=O)N(C)CC(=O)Nc2ccc3c(c2)OCCN3CC(C)(C)O)c2[nH]ncc2c1
discrete.label: middle bin
--
compound: Cc1cc(S(=O)(=O)N(C)CC(=O)Nc2ccn(C(C)C)c(=O)c2)c2[nH]ncc2c1
discrete.label: middle bin
--
compound: Cc1cc(S(=O)(=O)N2CC[C@H]2C(=O)Nc2ccc3c(c2)OCCO3)c2[nH]ncc2c1
discrete.label: middle bin
--
compound: CN(CC(=O)Nc1ccc2c(c1)OCCN2C1CCOCC1)S(=O)(=O)c1cc(C(F)F)cc2c(F)[nH]nc12
discrete.label: upper bin
--
compound: Cc1cc(S(=O)(=O)N(C)CC(=O)Nc2ccc3c(c2)OCCN3C2COC2)c2[nH]c(C#N)cc2c1
discrete.label: upper bin
--
compound: Cc1cc(S(=O)(=O)N(C)CC(=O)Nc2ccc3c(c2)N(C2COC2)CCO3)c2[nH]c(C#N)cc2c1
discrete.label: upper bin
--
compound: Cc1cc(S(=O)(=O)N(CC(=O)NC2=CC(=O)C(C)C=C2)C(C)C)c2[nH]ncc2c1 (stereo not shown)
discrete.label: lower bin
--
compound: CN(CC(=O)Nc1ccc2c(c1)OCCN2C1CCOCC1)S(=O)(=O)c1cc(Cl)cc2cn[nH]c12
discrete.label: upper bin
--
compound: Cc1cc(S(=O)(=O)N2CC[C@H]2C(=O)Nc2ccc3c(c2)N(C2COC2)CCO3)c2[nH]c(C#N)cc2c1
discrete.label: upper bin
--
compound: Cc1cc(S(=O)(=O)N(C)CC(=O)Nc2ccn(C)c(=O)c2)c2n[nH]c(Cl)c2c1
discrete.label: middle bin
--
compound: CN(C)CCOc1ccc(NC(=O)CN(C)S(=O)(=O)c2cccc3cn[nH]c23)cc1Cl
discrete.label: lower bin
--
compound: CN(CC(=O)Nc1ccn(C)c(=O)c1)S(=O)(=O)c1cc(F)cc2cn[nH]c12
discrete.label: lower bin
--
compound: Cc1cc(S(=O)(=O)N(C)CC(=O)Nc2ccn(C)c(=O)c2)c2[nH]nc(C)c2c1
discrete.label: lower bin
--
compound: Cn1ccc(NC(=O)[C@@H]2CCN2S(=O)(=O)c2cc(Cl)cc3c(F)n[nH]c23)cc1=O
discrete.label: lower bin
--
compound: Cc1cc(S(=O)(=O)N2CCC(C(=O)Nc3ccn(C)c(=O)c3)C2)c2[nH]ncc2c1 (stereo not shown)
discrete.label: lower bin
--
compound: Cc1cc(S(=O)(=O)N(C)CC(=O)Nc2ccc3cnccc3c2)c2n[nH]cc2c1
discrete.label: middle bin
--
compound: Cc1cc(S(=O)(=O)N(C)CC(=O)Nc2ccn3ccnc3c2)c2[nH]ncc2c1
discrete.label: upper bin
--
compound: C#CCNC(=O)[C@@H]1CCN1S(=O)(=O)c1cc(C)cc2cn[nH]c12
discrete.label: lower bin
--
compound: Cn1ccc(NC(=O)[C@@H]2CCN2S(=O)(=O)c2cc(C=O)cc3c(F)n[nH]c23)cc1=O
discrete.label: upper bin
--
compound: O=C(Nc1ccc2c(c1)OCCN2C1COC1)[C@@H]1CCN1S(=O)(=O)c1cc(C(F)F)cc2c(F)n[nH]c12
discrete.label: middle bin
--
compound: Cc1cc(S(=O)(=O)N(C)CC(=O)Nc2ccn3cnnc3c2)c2n[nH]cc2c1
discrete.label: middle bin
--
compound: Cc1cc(S(=O)(=O)N2CC[C@H]2C(=O)Nc2ccc3cnccc3c2)c2[nH]ncc2c1
discrete.label: middle bin
--
compound: Cc1cc(S(=O)(=O)N(C)CC(=O)Nc2nc3ccccc3o2)c2n[nH]cc2c1
discrete.label: upper bin
--
compound: Cc1cc(S(=O)(=O)N2CC[C@@H]2C(=O)Nc2ccn(C)c(=O)c2)c2[nH]c(C#N)cc2c1
discrete.label: lower bin
--
compound: COc1cc(NC(=O)CN(C)S(=O)(=O)c2cc(C)cc3cc(C#N)[nH]c23)ccn1
discrete.label: middle bin
--
compound: Cc1cc(S(=O)(=O)N(C)CC(=O)Nc2ccc3c(c2)OC(C)(C)CN3C)c2n[nH]cc2c1
discrete.label: middle bin
